# Tested on: OVCAR-4 ovarian
# Experiment notes: NCI-60 one-dose screen, 48 h (100 = growth as untreated, 0 = no growth, -100 = all killed)
# Run parameters: 10 µM unless noted
Compounds without any hit were thinned out: in the full panel of roughly 83,000, 20% have a hit.
Measured parameter: growth (%)

Molecule: CC(C)(O)C1CCCN1C(=O)c1ccccc1I (stereo not given)
Value units: %
Recorded value: 25.4

Molecule: O=C(Nc1nc2ccc(C(=O)N3CCN(c4ccc(Cl)c(Cl)c4)CC3)cc2s1)c1ccc(NCCc2ccccc2)c([N+](=O)[O-])c1
Value units: %
Recorded value: 87.3

Molecule: CN1C(=O)N(C)[C@H]2NC(NN)=N[C@H]21
Value units: %
Recorded value: 103

Molecule: COc1ccc(-n2cc(-c3cc(OC)c(OC)c(OC)c3)n(C(C)=O)c2=O)cc1
Value units: %
Recorded value: 79.9

Molecule: COc1ccc2c(Nc3ccc(NS(C)(=O)=O)cc3)c3ccccc3nc2c1
Value units: %
Recorded value: 11.8

Molecule: Fc1ccc(-n2cc(COc3ncnc4sc5c(c34)CCCC5)nn2)cc1Cl
Value units: %
Recorded value: 99.7

Molecule: Cc1ccc(C2C3CC4CCCCC4N3[C@@]3(C(=O)Nc4cc(Cl)ccc43)C2C(=O)c2nc3ccccc3[nH]2)cc1 (stereo not given in full)
Value units: %
Recorded value: 30.6

Molecule: CN1C2CCC1CN(c1cnc(C(=O)Nc3cc(F)cc4cccnc34)cn1)C2
Value units: %
Recorded value: 8.7

Molecule: c1ccc(N2N=C(c3cccc(Nc4ccncc4)c3)CC2c2ccc3c(c2)OCO3)cc1 (stereo not given)
Value units: %
Recorded value: 33.6

Molecule: N#Cc1c(NC(=O)c2cccc(Br)c2)sc2c1CCCC2
Value units: %
Recorded value: 75.1
